# studySystem: taxoid binding site of microtubules
# assayMethodText: Fluorescent taxoid (Flutax-2) displacement assay
# protocolConditions: 37° C., read-out: equilibrium dissociation constant Kd
Consider the following compounds; for each one, report its pKd.
Just the number, please; pKd means minus log10 of the concentration in mol/L.

Lab note: CSc1nc(/C=C(\C)[C@@H]2C[C@@H]3O[C@]3(C)CCC[C@H](C)[C@H](O)[C@@H](C)C(=O)C(C)(C)[C@@H](O)CC(=O)O2)cs1 [Compound 3, 2-(thiomethyl)thiazole epothilone B] gave pKd of 9.19

// pKd lookup, compound = C/C(=C\c1csc(C)n1)[C@@H]1C[C@@H]2O[C@@H]2CCC[C@H](C)[C@H](O)[C@@H](C)C(=O)C(C)(C)[C@@H](O)CC(=O)O1 [Compound 1, epothilone A] , result: 7.47
